protocol: yeast display, Sf9 membrane polyspecificity reagent, FACS + sequencing; frameworks hold sequencing errors
measure_name: polyreactivity (PSR sort gate)

INSERT INTO results (sequence_code, result) VALUES
  ('QVQLVESGGGLVQAGGSLRLSCAASGSIFSLNAMGWYRQAPGKEREFVAASGGGSTYYADSVKGRFTISRDNAKNTVYLQMNSLKPEDCAVYYCAARVLTDELDYWGQGTQVTVSS', 'low polyreactivity'),
  ('QVQLVESWGGLVQAGGSLRLSCAASGFIFDNNALGWYRQAPGKERELVADISRSGGSTYADSVKGRFTISRDNAKNTVYFQMNSLKAEDTAVYYCAKDFQGRRPPKEPSAFYYWGQGTQVTVSS', 'low polyreactivity'),
  ('QVQLVESGGCLVQAGGSLRLSCAASGRIFGLYAMGWYRQAPGKEREFVAAISSSGSDTYYADSVKGRFTISRDNAKNTVYLQINSLKPDYTAVYYCAKRRLYLCFDYNSSAYEYGYWGQGTQVTVSS', 'low polyreactivity'),
  ('QGQLVESAGGLVQAGGSLRLSCAASGSILWHYAMGWYRQAHGKERELVAAISGSGSTIYADSVKGRFTISRDNAKNTVYLQLITLKPEDTADYYCARVHGTSESKYYYWGQGTQVTVSL', 'low polyreactivity');

---

protocol: yeast display, Sf9 membrane polyspecificity reagent, FACS + sequencing; frameworks hold sequencing errors
measure_name: polyreactivity (PSR sort gate)

INSERT INTO results (sequence_code, result) VALUES
  ('QVQLVESGGGLVQAGGSLRLSCAAAGSTFSSYAMVWYRQAPGKERELVAAISTSGGRTYYADSVKGRFTISRDNAKNAVFLQMNSLKPEDTAVYYCAKKGICYVRYYYWGQGTLVTVSS', 'high polyreactivity'),
  ('QVQLVESGGGLVQAGGSLRLSCAASGVIFEYTAMGGYRQAPGKERELVAAITSSGGSTYYADSVKGRFTISRDKAKNTVYLQMNSLKPEDTAVYYCARVRRSAYYQDYYSWGQGTQVTVSS', 'high polyreactivity'),
  ('QVQLVESGGGLVQAGGSLRLSCAASGRIFYRYALGWYRQAPGKERELVAVITSSGGRTYYADSVKGRFTISRDNAKNTVYLQMNSLKPEDTAVYYCAATPVGSHYGNYYWGQGTQVTVSS', 'high polyreactivity'),
  ('QVQLQERGGGLVQAGGRLRLSCMASGSILGDRMSWYRQAPGKEHELVATIYDGGITYYADSMKVRFTISRDNANNTVDLQMKSQRPEDTAVYFCGASFEGYRYHVFCGQGTQVTVSS', 'low polyreactivity'),
  ('QVQLVESGGGLVQAGGSLRLSCAASGSIFVNYAMGWYRQAPGKERELVAAISRSGGRTYYADSVKGRFTISRDNAKNTVYLQMNSLKPEDTAVYDCNVYPVLRTIEGDYWGQGTQVTVSS', 'high polyreactivity'),
  ('QVHLVESGGGLVQAGGSLRLSCAASGRIFRRNTMGWYRQAPGKERELVAAITSSGGSTYADSVKGRFTISRDNAKNTVYLQMNSLKPEDTAVYYCATYVAYHRGYRTYDHWGQGTQVTVSS', 'low polyreactivity'),
  ('QVQLVESGGGLVQAGGSLRLSCAASGSTFSNVMGWYRQAPGKEREFVARISKSGGSTYYADSVKGRFTISRDNAKNSVYLQMNSLKPEDTAVYYCATGRFRRTEYGGRYDYWGQGTKVTVSS', 'high polyreactivity'),
  ('QVQLVESGGGLVQAGGSLRLSCAASGITFGWYAMGLYRQAPGKERELVAAISTGSSTYYADSVKGRFTISRDNAKNTVYLQMNSLKPEDTAVYYCNAYPGPSGTLYVTPYDYWGQGTQVTVSS', 'high polyreactivity'),
  ('QVQLVESGGGLVQAGGSLRFSCAASGSILYGYAIGWYRQAPGQETELVAAIRLTGGSTYYADSVKGRFTISRDNAKNTVYLQMNSLKPEDTAVYYCAAEYNLRNYWGDYWGQGTLVTVSS', 'low polyreactivity'),
  ('QVQLVDSGGGLVQAGGSLRLRCAASGSTYHYAMAGYRQAPGKERELVASITWRGDTTYYADSVKARFTISRDNAMNTVYFHMNSLKPEDSAVYYCAAYVRRCFAWGQGTQVTVSS', 'high polyreactivity'),
  ('QVQLVESGGGLVQAGGSLRLSCAASGRIFRFYAMGWYRHPPGKERELVAAIRRGGSTTYADSVKGRFTISRDNAKNTVYLQMNSLKPEDTAVYYCAATQYYRGYDYWGQGTQVTVSS', 'high polyreactivity'),
  ('QVQLVESGGGLVQAGGSLRLSCAASGSTFHTYGMGWYRQAPGKERELVSAIDLSDGSTYYADSVKGRFTISRDNAKNTVYLQMNSLKPEDTAVYYCNADYFPKPYRPDDYWGQGTQVTVSS', 'low polyreactivity');

---

protocol: yeast display, Sf9 membrane polyspecificity reagent, FACS + sequencing; frameworks hold sequencing errors
measure_name: polyreactivity (PSR sort gate)

INSERT INTO results (sequence_code, measure_name, result) VALUES
  ('QVQLVESGGVLDQAGGSLRLICAASGITLFHYVMGWYRQAPGKEMELVAVISSSGGSTYYADSVKGRFTISRDNAKNTVYLQMNSLKPEDTAVYYCAAETDSRKARVLYDYWGQGTQVTVSS', 'polyreactivity (PSR sort gate)', 'high polyreactivity'),
  ('QVQLVESGGGLVQAGGSLRLSCAASGLIFAKYAMGWYRQAPGKERELVAAITSSGAGTYYADSVKGRFTISRDNAKNTVYLQMNCLKPEDTAVYYCATGPDPKYDYWGQGTQVTVSS', 'polyreactivity (PSR sort gate)', 'high polyreactivity'),
  ('QVQLVESGGGLVHAGGTLRLSCAASGGIFYHYTMGWYRQAPGKERELVASIRVSGGRTYNADSVTGRFTISRDNAKNTVYLQMNSLKPQDSAVYFCNARGSWYQPTYDYWGQGTQVTVSS', 'polyreactivity (PSR sort gate)', 'high polyreactivity'),
  ('QDQLVDSGGGLVQAGGSLRLSCAASGRTFGYYAMGWYRQAPGKERELVAAISISTGRTYYADSVKGRFTISRDNAKNTVYLQMNSLKPEDTAVYYCAAYYYGGRYHSEYDYWGQGTQVTVSS', 'polyreactivity (PSR sort gate)', 'high polyreactivity'),
  ('QVQLVESGGGLVQAGGSLRLSCAASGSTLWANAMGWYRQAPGKERELVAAISWRGGRTYYADSVKGRFTISRDNAKNTVYLQMNSLKPEDTAVYYCNAVSYYRPRSDYGGQGTQVTVSS', 'polyreactivity (PSR sort gate)', 'high polyreactivity'),
  ('QVQLVESGGGLVQAGGSLRLSCAASGFTFAGYAMGWYRQAPGKERELVAAINRGGSTYYADSVKGRFTISRDNAKNTVYLQMNSLKPEDTAVYYCAKAQRFYGGRMGYWGQGTQVTVST', 'polyreactivity (PSR sort gate)', 'low polyreactivity'),
  ('QVQLVESGGGLVQAGGSLRLSCAASGITFGFNAMGWNRQAPGKERELVAAITWSVGRTYYADSVKGRFTISRDNAKNTVYLQMNSLKPEDTAVYYCAKDFEAGDDYFAYDYWGQGTQVTVSS', 'polyreactivity (PSR sort gate)', 'low polyreactivity'),
  ('QVQLVESGGGLVQAGGSLRLSCAASGSTFGPYVMGGYRQAPGKERELVAVISGGSTDYADSVKGRFTISRDNAKNTVYLQMNSLKPEDTAVYYCNAEYYFYLSPTVYLYDYWGQGTQVTVSS', 'polyreactivity (PSR sort gate)', 'high polyreactivity'),
  ('QVQLVESGGGLVQAGGSLRLSCAASGFTFNEYAMGWYRQAPGKERELVAAITWGGASTYYADSVKGRFTISRDNAKNTVYLQMNSLKPEDTAVYYCVFVYVYDYYYWGQGTQVTVSS', 'polyreactivity (PSR sort gate)', 'high polyreactivity'),
  ('QVQLVESGGGLVQAGGSLRLSCAASGSIFAYNAKGWYRPAPGKEREFVAVITRSDDSTYADSVKWRFTISRDNAKNTVYLQMNSLKPEDTSVYYCAAQPFVIDCGYRGDYWGQATQVTVSS', 'polyreactivity (PSR sort gate)', 'low polyreactivity');

---

protocol: yeast display, Sf9 membrane polyspecificity reagent, FACS + sequencing; frameworks hold sequencing errors
measure_name: polyreactivity (PSR sort gate)

INSERT INTO measurements (sequence_code, measure_name, result) VALUES
  ('QVQLVESGGGLVQAGGSLRLSCAASGITFAWYAMGWYRQAPGKEREFVAAITGSGGRTYYADSVKGRFTISRDIAKNTVYLQMNSLKPEDTAVYYCATASSVSGARYDYCGQGTQVTVSS', 'polyreactivity (PSR sort gate)', 'high polyreactivity'),
  ('QVQLVESGGGLDQAGGSLRLSCAASGSIFRSYAMGWYRQAPGKERELVATIDRSGGSTYYADSVKGRFTISRDNAKNTVYLQMNSLKPEDTAVYYCNKTPHFPRPGFNYWGQGTQVTVSS', 'polyreactivity (PSR sort gate)', 'low polyreactivity'),
  ('QVKLVESGGGLVKAGGRLRLSCAASGSTFRKYTMGWYRQAPWKERELVAAITYRGDRTYYADSVKGRFTISRDNAKNNVYLQMNSLKQEDTAVYYCAAVYVRGDRYDYWGQGTQVTVSS', 'polyreactivity (PSR sort gate)', 'high polyreactivity'),
  ('QVQLVESGGGLVQAGGSLRLSCAASGNNFVYNPMGWYRPAPGKERELVAAIDSGGSTNYADSVKGRFTISRDNAKNTVYLQMNSLKPDDTAVYYCAADYFSTYRTIYYYWGQGTQVTVSS', 'polyreactivity (PSR sort gate)', 'low polyreactivity'),
  ('QVQLVESWGGLVQAGASLRLSSAASGSIFGSYAMGSYRQAPGKERQLVAAITGIGGSTYYADSVKGRFTITRDNAKNTVYLQLNSLKPEDTAVYYCATRVRYRAPVVRGNYWGQGTQVTVSS', 'polyreactivity (PSR sort gate)', 'high polyreactivity');
